- Tested on: Human Neutrophil Elastase (HNE) (Homo sapiens)
- Construct: Human Neutrophil Elastase (HNE) purified from serum
- Sequence (P08246 30-247 limits assumed): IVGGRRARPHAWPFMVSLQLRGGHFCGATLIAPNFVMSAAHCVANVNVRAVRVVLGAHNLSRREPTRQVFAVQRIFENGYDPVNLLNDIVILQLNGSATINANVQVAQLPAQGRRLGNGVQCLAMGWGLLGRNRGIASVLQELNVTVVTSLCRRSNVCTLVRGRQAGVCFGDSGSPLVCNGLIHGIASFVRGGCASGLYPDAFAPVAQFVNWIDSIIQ
- Measurement notes: Human Neutrophil Elastase Quenched-FRET Assay
- Test context: HNE 1.7 nM, substrate MeOSuc-AAPV-AMC 100 μM, 15 min pre-incubation, 30 min incubation at room temperature; read-out: Inhibition of Human Neutrophil Elastase IC50
Below is a list of entries, each paired with its recorded IC50 value.

{"Compound": "CNC(=O)c1cc(-c2ocnc2-c2ccc(Cl)cc2)c(C)n(-c2cccc(C(F)(F)F)c2)c1=O", "IC50 / nM": 1.6}
{"Compound": "CNC(=O)c1cc(-c2nc(N)sc2-c2ccc(C#N)cc2)c(C)n(-c2cccc(C(F)(F)F)c2)c1=O", "IC50 / nM": 0.26}
{"Compound": "CNC(=O)c1cc(-c2ccnn2-c2ccc(C#N)cc2)c(C)n(-c2ccc(F)c(Cl)c2)c1=O", "IC50 / nM": 0.93}
{"Compound": "CNC(=O)c1cc(-c2nc(N)sc2-c2ccc(Cl)cc2)c(C)n(-c2cccc(C(F)(F)F)c2)c1=O", "IC50 / nM": 0.26}

FYI, the data here is from patent US7998984B2.
